The measurements presented in this section are drawn from paper PMC7518156.

# run-description: Pharmacokinetics of ERL and GEF in Wistar rats after four weeks consumption of water or flavoured water (plasma, UPLC-MS/MS, non-compartmental analysis)
# Format: in vivo
# measurement-parameters: male, Wistar, rat, plasma, oral, 20 mg/kg, PKSolver sheet; dose 20 mg/kg; drug alone (water); time 0 h; read-out: Conc
reported-property: concentration at 0 h (ng/mL)

[A] C#Cc1cccc(Nc2ncnc3cc(OCCOC)c(OCCOC)cc23)c1 [ERL, Erlotinib]
[B] COc1cc2ncnc(Nc3ccc(F)c(Cl)c3)c2cc1OCCCN1CCOCC1 [GEF, Gefitinib]
Query: Select one. Lower concentration at 0 h: A or B Write down the label attached to your selection.
Reply: A

###

# run-description: Pharmacokinetics of ERL and GEF in Wistar rats after four weeks consumption of water or flavoured water (plasma, UPLC-MS/MS, non-compartmental analysis)
# Type: in vivo
# measurement-parameters: male, Wistar, rat, plasma, po, 20 mg/kg, rats, 20 mg/kg oral; +Lime FW; average; time 1 h; read-out: Conc*10 (ng/mL plasma)
reported-property: concentration at 1 h (ng/mL)

[P] C#Cc1cccc(Nc2ncnc3cc(OCCOC)c(OCCOC)cc23)c1
[Q] COc1cc2ncnc(Nc3ccc(F)c(Cl)c3)c2cc1OCCCN1CCOCC1
Query: // which entry has the larger concentration at 1 h value, P or Q ? Returns: label corresponding to the selected item.
Reply: Q
(Q: 483 ng/mL, P: 103 ng/mL)

###

# run-description: Pharmacokinetics of ERL and GEF in Wistar rats after four weeks consumption of water or flavoured water (plasma, UPLC-MS/MS, non-compartmental analysis)
# Type: in vivo
# measurement-parameters: male, Wistar, rat, plasma, po, 20 mg/kg, raw data sheet, from average profile; +Peach FW; read-out: t½ (converted)
reported-property: half-life (h)

[P] C#Cc1cccc(Nc2ncnc3cc(OCCOC)c(OCCOC)cc23)c1
[Q] COc1cc2ncnc(Nc3ccc(F)c(Cl)c3)c2cc1OCCCN1CCOCC1
Query: Of P and Q , whose reported half-life is numerically smaller? Refer to your chosen item by its label in the answer.
Reply: Q

###

# run-description: Pharmacokinetics of ERL and GEF in Wistar rats after four weeks consumption of water or flavoured water (plasma, UPLC-MS/MS, non-compartmental analysis)
# Assay type: in vivo
# measurement-parameters: male, Wistar, rat, plasma, oral, 20 mg/kg, PKSolver sheet; dose 20 mg/kg; +Pineapple; time 48 h; read-out: Conc
reported-property: concentration at 48 h (ng/mL)

[a] C#Cc1cccc(Nc2ncnc3cc(OCCOC)c(OCCOC)cc23)c1 [ERL, Erlotinib]
[b] COc1cc2ncnc(Nc3ccc(F)c(Cl)c3)c2cc1OCCCN1CCOCC1 [GEF, Gefitinib]
Query: Which gives the smaller concentration at 48 h number: a or b ? Respond with the label that goes with your answer.
Reply: a
(a: 14 ng/mL, b: 40.2 ng/mL)

###

# run-description: Pharmacokinetics of ERL and GEF in Wistar rats after four weeks consumption of water or flavoured water (plasma, UPLC-MS/MS, non-compartmental analysis)
# Format: in vivo
# measurement-parameters: male, Wistar, rat, plasma, oral, 20 mg/kg, PKSolver sheet; dose 20 mg/kg; +Berry; time 3 h; read-out: Conc
reported-property: concentration at 3 h (ng/mL)

[1] C#Cc1cccc(Nc2ncnc3cc(OCCOC)c(OCCOC)cc23)c1
[2] COc1cc2ncnc(Nc3ccc(F)c(Cl)c3)c2cc1OCCCN1CCOCC1
Query: Identify the entry with the smaller concentration at 3 h: 1 or 2 . Record your answer as the label of the chosen record.
Reply: 1
